B1: library; numbered along this chain (parent)
chain: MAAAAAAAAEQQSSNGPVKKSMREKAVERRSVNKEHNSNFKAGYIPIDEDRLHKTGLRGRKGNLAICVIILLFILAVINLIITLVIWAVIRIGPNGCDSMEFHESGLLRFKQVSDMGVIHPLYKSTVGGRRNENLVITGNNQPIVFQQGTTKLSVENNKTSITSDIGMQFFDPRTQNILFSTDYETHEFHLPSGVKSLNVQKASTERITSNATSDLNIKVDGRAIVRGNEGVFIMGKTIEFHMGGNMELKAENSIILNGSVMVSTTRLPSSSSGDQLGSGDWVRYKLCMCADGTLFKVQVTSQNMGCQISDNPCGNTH

Variants of: B1
Assay: SGCB cell-surface expression functional score (HA stain, bin4 vs bin1, normalised to synonymous) (log10 ratio); higher = more cell-surface SGCB (functional)
SGCB cell-surface expression functional score (log10) vs 0.1: at or above is T, below is F.

Solved entries (count: 3):
G93A    F
T294M    T
V261M    F

IN: Is SGCB cell-surface expression functional score (log10) for E252N at or above 0.1?
OUT: T

IN: Is SGCB cell-surface expression functional score (log10) for V68R at or above 0.1?
OUT: F
